Origin of values: the supplement of paper PMC11451515

tested on: P12-Ichikawa; experiment: cell viability relative to DMSO control; higher = less cytotoxic; settings: HPLM + 10% dialyzed FBS; 48 h; 0.19 µM
experimental-readout: cell viability (%)
Quick reminder: number only, in %, skip the unit.

test_smiles=OC[C@H](Cc1ccccc1)Nc1nc(Oc2ccc3c(c2)CCC3)nc2c1ncn2Cc1ccc(-c2ccccc2)cc1 experimental_readout="cell viability" quantitative_readout=99.1
test_smiles=CC1=CC=CC=C1CN2C(=O)C/3=C(/CCN(CC4=CC=CC=C4)C3)N\5CC\N=C25 experimental_readout="cell viability" quantitative_readout=112
test_smiles=CC(C)n1nc(-c2ccc3oc(N)nc3c2)c2c(N)ncnc21 experimental_readout="cell viability" quantitative_readout=75

Query: Report cell viability for OC(=O)\C1=C\N(C2=CC=C(F)C=C2)C3=C(C=C(F)C(=C3)N4CCNCC4)C1=O please.
Reply: 117

Query: Looking for the measured cell viability of C=CC1=C(C(=O)O)N2C(=O)[C@@H](NC(=O)/C(=N\O)c3csc(N)n3)[C@H]2SC1 , can you help?
Reply: 122

Query: If you can, please state the reported cell viability value of c1cc(CN2CCCNCCNCCCNCC2)ccc1CN1CCCNCCNCCCNCC1 .
Reply: 104

Query: Look up cell viability for this compound: C[C@@]12O[C@@H](C[C@]1(O)CO)n1c3ccccc3c3c4c(c5c6ccccc6n2c5c31)CNC4=O
Reply: 101

Query: // query cell viability value for entry [NH2][Pt]([NH2])([Cl])[Cl]
Reply: 96

Query: Can you share its cell viability? I mean this compound: O=C(NC[C@H]1CN(c2ccc(N3CCOCC3=O)cc2)C(=O)O1)c1ccc(Cl)s1
Reply: 119

----------
test system: SEM cells; assay: cell viability relative to DMSO control; higher = less cytotoxic; details: RPMI 5 mM glucose + 10% dialyzed FBS; 48 h; 0.19 µM
experimental-readout: cell viability (%)
Report the value in % with no unit label.

Completed entries (count: 2):
molecule=NC(CO)(CO)CCc1ccc(Sc2cccc(OCc3ccccc3)c2)cc1Cl experimental_readout="cell viability" quantitative_readout=124
molecule=CCc1c(C(=O)C(N)=O)c2c(OCC(=O)O)cccc2n1Cc1ccccc1 experimental_readout="cell viability" quantitative_readout=105

Query: Could you share which cell viability value was measured for CC(=O)C\1=C(/C)C2=CN=C(NC3=CC=C(C=N3)N4CCNCC4)N=C2N(C5CCCC5)C1=O ?
Reply: 99.2

Query: Need cell viability, item Cc1cccc(C)c1OCC(=O)N[C@@H](Cc1ccccc1)[C@@H](O)C[C@H](Cc1ccccc1)NC(=O)[C@H](C(C)C)N1CCCNC1=O
Reply: 100

Query: Recorded cell viability of C[C@@]12O[C@@H](C[C@]1(O)CO)n1c3ccccc3c3c4c(c5c6ccccc6n2c5c31)CNC4=O , please.
Reply: 52.1

----------
AUC of viability dose-response curve values by entry
tested on: SEM cells; experiment: AUC of viability dose-response curve (% viability x log10 dose units); higher = less sensitive; conditions: RPMI 5 mM glucose + 10% FBS; 48 h
// return just the number, without any unit appended

Solved entries:
test_smiles=CC(=O)N1CCN(c2ccc(OC[C@H]3CO[C@](Cn4ccnc4)(c4ccc(Cl)cc4Cl)O3)cc2)CC1 assay_system="SEM cells" experimental_readout="AUC of viability dose-response curve" quantitative_readout=340
test_smiles=CN(C)NC(=O)CCC(=O)O assay_system="SEM cells" experimental_readout="AUC of viability dose-response curve" quantitative_readout=464
test_smiles=CC(=O)Nc1nc(C)c(-c2ccc(Cl)c([S+](=O)([O-])NCCO)c2)s1 assay_system="SEM cells" experimental_readout="AUC of viability dose-response curve" quantitative_readout=345
test_smiles=c1cc(CN2CCCNCCNCCCNCC2)ccc1CN1CCCNCCNCCCNCC1 assay_system="SEM cells" experimental_readout="AUC of viability dose-response curve" quantitative_readout=387
test_smiles=COc1cc2c(Nc3ccc(Cl)c(Cl)c3F)ncnc2cc1OC[C@@H]1C[C@@H]2CN(C)C[C@@H]2C1 assay_system="SEM cells" experimental_readout="AUC of viability dose-response curve" quantitative_readout=358

Query: So what's the measured AUC of viability dose-response curve for this one? CCNC(=O)c1cc2c(-c3cc(OCCN4CCCC4)c(Cl)cc3Cl)nc(N)nc2s1
Reply: 375

Query: Need AUC of viability dose-response curve, item CN(C)C(=O)c1ccc([S+](=O)([O-])c2ccc(NC(=O)[C@@](C)(O)C(F)(F)F)c(Cl)c2)cc1
Reply: 417

Query: What measured AUC of viability dose-response curve goes with C\C1=C\C(=O)C2=C(C=CC=C2)C1=O ?
Reply: 458

Query: // lookup AUC of viability dose-response curve for OC[C@H](Cc1ccccc1)Nc1nc(Oc2ccc3c(c2)CCC3)nc2c1ncn2Cc1ccc(-c2ccccc2)cc1
Reply: 428

Query: Tell me the measured AUC of viability dose-response curve of C[C@H]1[C@H](OC(=O)CCC(=O)O)O[C@@H]2O[C@@]3(C)CC[C@H]4[C@H](C)CC[C@@H]1[C@@]24OO3 , please.
Reply: 371

Query: If you can, please state the reported AUC of viability dose-response curve value of Cn1cc(-c2ccc3nnc(C(F)(F)c4ccc5ncccc5c4)n3n2)cn1 .
Reply: 469

Query: Param item = O=C(Nc1cccc(Nc2ncc(Br)c(NCCc3cnc[nH]3)n2)c1)N1CCCC1 ; retrieve measured AUC of viability dose-response curve.
Reply: 203

Query: Returns the measured AUC of viability dose-response curve for the input compound. Input: CC(C)[C@@H](C[S+](=O)([O-])C(C)C)N1C(=O)[C@@](C)(CC(=O)O)C[C@H](c2cccc(Cl)c2)[C@H]1c1ccc(Cl)cc1
Reply: 289

Query: // lookup AUC of viability dose-response curve for COc1cc2nc(N3CCCN(C)CC3)nc(NC3CCN(Cc4ccccc4)CC3)c2cc1OC
Reply: 416

Query: // query AUC of viability dose-response curve value for entry CC(=O)Nc1ccc([C@H](C)C(=O)Nc2ncc(C(C)C)s2)cc1
Reply: 393

----------
tested on: SEM cells; assay: cell viability relative to DMSO control; higher = less cytotoxic; conditions: HPLM + 10% dialyzed FBS; 48 h; 0.00702 µM
experimental-readout: cell viability (%)
Reply numerically in %, unit not repeated.

Examples with their reported cell viability follow.
compound=CCNC(=O)c1cc2c(-c3cc(OCCN4CCCC4)c(Cl)cc3Cl)nc(N)nc2s1 unit_info=% quantitative_readout=112
compound=CO[C@H]1C[C@@H]2CC[C@@H](C)[C@@](O)(O2)C(=O)C(=O)N2CCCC[C@H]2C(=O)O[C@H]([C@H](C)C[C@@H]2CC[C@@H](OC(=O)C(C)(CO)CO)[C@H](OC)C2)CC(=O)[C@H](C)/C=C(\C)[C@@H](O)[C@@H](OC)C(=O)[C@H](C)C[C@H](C)/C=C/C=C/C=C/1C unit_info=% quantitative_readout=88
compound=COc1cc2nc(N3CCCN(C)CC3)nc(NC3CCN(Cc4ccccc4)CC3)c2cc1OC unit_info=% quantitative_readout=129
compound="CC(C)C[C@H](NC(=O)CNC(=O)c1cc(Cl)ccc1Cl)B1OC(=O)CC(CC(=O)O)(C(=O)O)O1 (stereo partly specified)" unit_info=% quantitative_readout=125
compound="CC(=O)CC(C1=CC=CC=C1)C/2=C(O)/C3=CC=CC=C3OC2=O (stereo unspecified)" unit_info=% quantitative_readout=114

Query: Any idea what cell viability was measured for CC[C@H]1/C=C\C=C/C[C@@H](C)[C@H](O)[C@@](C)(O)C(=O)[C@@H](C)[C@H](O)[C@@H](C)C(=O)[C@@H](C)[C@H](O)[C@@H](C)/C=C/C(=O)O[C@@H]2[C@H](C)[C@H](CC1)O[C@]1(CC[C@H](C)[C@H](C[C@@H](C)O)O1)[C@H]2C ?
Reply: 105

----------
The entries below come with measured cell viability values attached.
tested on: NOMO1; test: cell viability relative to DMSO control; higher = less cytotoxic; settings: HPLM + 10% dialyzed FBS; 48 h; 0.000781 µM
Your answer should be a plain number; it is taken to be in %.

compound="CCC1(c2ccc(N)cc2)CCC(=O)NC1=O (stereo not given)" assay_system=NOMO1 quantitative_readout=115
compound=Cc1c(Cn2c(C)nc3c(C(=O)O)cc(N4CCOCC4)cc32)cccc1C(F)(F)F assay_system=NOMO1 quantitative_readout=98.3
compound=CCOC(=O)N1CCN(/[N+]([O-])=N/Oc2ccc([N+](=O)[O-])cc2[N+](=O)[O-])CC1 assay_system=NOMO1 quantitative_readout=85.1
compound=CCNC(=O)c1cc2c(-c3cc(OCCN4CCCC4)c(Cl)cc3Cl)nc(N)nc2s1 assay_system=NOMO1 quantitative_readout=105

Query: So what's the measured cell viability for this one? Cc1cc(Nc2nc(N[C@@H](C)c3ncc(F)cn3)ncc2Cl)n[nH]1
Reply: 89.6
